biological target: T1, HLA-B*44:05 (human); assay: UV peptide exchange, anti-b2m ELISA
T1 construct: also called peptide-receptive MHC class I molecule
readout: peptide exchange yield

Memo: ALTEDSIDDTF , reported peptide exchange yield: 10 to 20%

Memo: HENLIEDF , reported peptide exchange yield: 50 to 75%

Memo: SEKWFRMGF , reported peptide exchange yield: 50 to 75%

Memo: REDPIVYEI , reported peptide exchange yield: 20 to 50%

Memo: EMREERKF , reported peptide exchange yield: 20 to 50%

Memo: DEQRRQNVAY , reported peptide exchange yield: 20 to 50%

Memo: RYFDENIQKFIW , reported peptide exchange yield: 50 to 75%

Memo: MDELEEGESY , reported peptide exchange yield: 10 to 20%

Memo: LEWQHPSSW , reported peptide exchange yield: > 75%

Memo: GEPVTQPGSLL , reported peptide exchange yield: 50 to 75%

Memo: QETNKVETY , reported peptide exchange yield: 50 to 75%

Memo: EEEDRDGHTW , reported peptide exchange yield: 50 to 75%

Memo: AEADLSYTWDF , reported peptide exchange yield: 50 to 75%

Memo: KEHNSSVPWSS , reported peptide exchange yield: > 75%

Memo: DQVTVFLHF , reported peptide exchange yield: 10 to 20%

Memo: SEYVHSSFSGF , reported peptide exchange yield: 50 to 75%

Source of measurements: patent US20200087363A1
